This listing pairs molecules with measured growth inhibition.
assay: antimalarial activity against Dd2 strain (AID 2302);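 also: 0% = DMSO untreated growth and 100% = chloroquine plus artemisinin killed control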; details: P. falciparum Dd2 in RBCs, LDH growth readout, 72 h; at 2 µM; active compounds read high
PROPERTY LABEL: growth inhibition (%)

1. Cc1ccc2[nH]ncc2c1N(CC1CCCCC1)c1ccnc(Nc2ccc(OCC(O)CN3CC=CCC3)cc2)n1 (centres undefined)    79
2. CC(C)c1cc(Oc2c(I)cc(CCN=C(N)N)cc2I)ccc1O    54
3. Nc1nccc(-c2ccc3c(/C=C/c4ccccc4)cnc(N)c3c2)n1    100
4. Cc1ccnc(-n2c(C)cc(C=C3SC(=Nc4ccccc4)N(Cc4ccco4)C3=O)c2C)c1    98
5. O=C(NCc1ccc(C(F)(F)F)cc1)c1cccc(-c2nnc(-c3cccc(-c4cncnc4)c3)o2)c1    79
6. Cc1cccc2[nH]c(-c3cccc(-c4ccc(NC(=O)Nc5ccsc5)cc4)c3)nc12    99
7. O=C(Nc1ccc(-c2cccc(-c3nc4ccc(C(F)(F)F)cc4[nH]3)c2)cc1)c1ccoc1    13
8. CCOC(=O)NCC(=O)Nc1cccc(-c2cccc(-c3nc4c(C)cccc4[nH]3)c2)c1    35
9. Cc1[nH]c(C)c(-c2ccc(-c3ccc(OC(F)(F)F)cc3)cc2)c(=O)c1Br    97

* * *

# growth inhibition values compiled below
experiment: inhibition of 3D7 malaria parasite growth – strain 3D7 (AID 2306);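 also: 0% = DMSO wells and 100% = chloroquine plus artemisinin control wells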; details: P. falciparum 3D7 erythrocytic growth, LDH absorbance, 72 h; at 2 µM; active compounds read high
PROPERTY LABEL: growth inhibition (%)

1) COC(=O)c1cc(C(O)CNC(C)CCc2cccc(F)c2)ccc1O (stereo not given)    94
2) CC(C)OC(=O)c1ccccc1S(N)(=O)=O    97
3) COc1cccc(NC(=O)COc2ccc(C(=O)Nc3nc4ccccc4[nH]3)cc2)c1    99
4) CC1CN(Cc2ccc(-c3cccc(-c4nc5ccc(F)cc5[nH]4)c3)cc2)CC(C)O1 (stereo not given)    93
5) CN1CCN(Cc2cccc(-c3cc4nccc(Nc5ccc(Oc6ccccc6)cc5)c4cc3Cl)c2)CC1    101
6) Cc1ccc(CNC(=O)[C@H](CCCN)Nc2nc(Nc3ccccc3)ncc2C)cc1    97
7) CN(C)CCCNCc1cn(S(=O)(=O)c2ccccc2Cl)c2ccccc12    92
8) COc1cc(C(=O)N2CCOC(CCN3CCC(Cc4ccc(F)cc4)CC3)(c3ccc(Cl)c(Cl)c3)C2)cc(OC)c1OC (stereo not given)    88
9) CCN(CC)CCOc1c(Cl)cc(Cl)cc1CNCCCNc1cc(=O)c2ccccc2[nH]1    97
10) CN(C)CCOc1cc(NC(=O)Nc2cccc3c(-c4ccncc4)cccc23)ccc1I    100

* * *

Entries and their inhibition
experiment: HepG2 cytotoxicity, primary screen, cytotoxicity control for P. falciparum antimalarial project, cell-based, ATP luminescence (AID 2303); settings: HepG2 viability, 24-48 h, at 10 µM, active compounds read high;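 also: 0% = DMSO wells and 100% = digitonin-killed cells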
PROPERTY LABEL: inhibition (%)

1) COc1ccc(-c2cccc(NC(=O)c3cccc(C#N)c3)c2)cc1CN1CCC(O)CC1    30
2) COC(=O)c1cccc(CNCc2cccc(-c3ccc(-c4nc5ccc(C(F)(F)F)cc5[nH]4)cc3)c2)c1    13
3) CC(=O)Oc1c(C2C=CCCC2)c(OC(C)=O)c2ccccc2c1OC(C)=O (centres undefined)    10
4) COc1cccc(-c2csc(C(=O)NCC3CCN(Cc4ccc(C(C)(C)C)cc4)C3)c2)c1 (centres undefined)    30
5) CN(C)CCN(C)Cc1ccc(-c2ccc(NC(=O)c3ccc(Cl)cc3)cc2)cc1    51
6) CCn1c(SCc2ccc(F)cc2)nc2sc3c(c2c1=O)CCN(C)C3    2
7) CC(C)CCN1CCC(Oc2ccc(NC(=O)c3cccs3)cc2Cl)C1 (centres undefined)    17
8) Nc1nccc2ccc(-c3cccc4ncccc34)cc12    40
9) CCC(C)NS(=O)(=O)c1ccc2nc(Nc3cccc(SC)c3)n(C(C)C(C)C)c2c1 (centres undefined)    -1
10) COc1ccc(NC(=O)N2CCCN(CCCCCNC(=O)/C=C/c3ccc(C(F)(F)F)cc3)CC2)cc1Cl    21
11) COc1ccc(C2C(C(=O)OC3CCCC3)=C(C)NC3=C2C(=O)CCC3)cc1Br (centres undefined)    -2
12) CN(CCN(C)CC(O)c1ccc(Cl)c(Cl)c1)CC(O)c1ccc(Cl)c(Cl)c1 (centres undefined)    22
13) COCC(C)n1c(C)cc(C(=O)CSc2nnc(Nc3ccccc3)s2)c1C (centres undefined)    -5
14) CCCNS(=O)(=O)c1ccc(NC(=O)C(C)Oc2ccc([N+](=O)[O-])cc2)cc1 (centres undefined)    3
15) COCCOc1ccc(Nc2nccc(-c3c(-c4cccc(NC(=O)c5c(F)cccc5F)c4)nn4ccccc34)n2)cc1F    62
16) COc1ccc(OCCCON2C(N)=NC(N)=NC2(C)C)cc1    55
17) CCCC(=O)Nc1ccc(OCCCN(Cc2cccc(C(F)(F)F)c2)c2ccc(C#N)c(C(F)(F)F)c2)cc1    -12
18) COc1ccc(C(=O)CCC(=O)N(Cc2ccc(-c3ccc(CNCCc4ccc(S(C)(=O)=O)cc4)cn3)cc2)C2CCN(Cc3ccccc3)CC2)cc1F    20
19) O=C(C=Cc1ccc(Cl)c(Cl)c1)NCCCCCN1CCCC(CCCNC(=O)c2cccs2)C1 (centres undefined)    24

* * *

molecular target: L-lactate dehydrogenase (Plasmodium falciparum (isolate CDC / Honduras)) (UniProt Q27743); assay: PfLDH activity inhibition – cell lysate, 3D7 strain, counter-screen for P. falciparum growth inhibition project (AID 2304);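 also: 0% = vehicle and 100% = reference inhibitor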; conditions: P. falciparum 3D7 crude extract, LDH APAD/NBT absorbance; at 2 µM; active compounds read high
Sequence (Q27743 whole entry, looked up): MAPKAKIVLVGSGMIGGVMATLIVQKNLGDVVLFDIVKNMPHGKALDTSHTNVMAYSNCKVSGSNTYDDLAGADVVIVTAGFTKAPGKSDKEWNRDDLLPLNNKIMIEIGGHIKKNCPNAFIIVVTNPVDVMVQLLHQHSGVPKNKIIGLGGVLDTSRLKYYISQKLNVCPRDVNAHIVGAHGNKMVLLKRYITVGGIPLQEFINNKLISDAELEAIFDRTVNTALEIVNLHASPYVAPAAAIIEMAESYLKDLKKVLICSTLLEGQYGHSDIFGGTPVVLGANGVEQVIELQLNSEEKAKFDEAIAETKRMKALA
PROPERTY LABEL: inhibition (%)

1. COC1CCC(C(=O)Nc2ccc(-c3cccc(-c4nc5c(C)cccc5[nH]4)c3)cc2)CC1 (stereo not drawn)    1
2. Nc1c2c(nc3ccc(Oc4ccc(Br)cc4Br)cc13)CCCC2    0
3. O=C(Nc1cccc(-c2nn3ccccc3c2-c2ccnc(Nc3cccc(N4CCCC4=O)c3)n2)c1)c1cc(F)ccc1F    3
4. CN1CCCC(CN2CCN(Cc3cccc(-c4ccc(-c5nc6ccc(F)cc6[nH]5)cc4)c3)CC2)C1 (stereo not drawn)    -1
5. O=C(Nc1cc(Cl)cc(Cl)c1)Nc1ccnc2ccccc12    -2
6. FC(F)(F)COc1ccc(CNCCCCCCNCc2ccc(OCC(F)(F)F)c3ccccc23)c2ccccc12    3
7. Cc1ccc(C(C)C)c(Oc2cnc(NC(CO)c3ccccc3)nc2N)c1 (stereo not drawn)    4
8. CS(=O)(=O)CCNCc1ccc(-c2ccc3c(Nc4ccc(F)cc4Cl)ccnc3c2)o1    0
9. CC(C)Cn1c(Sc2ccc(C#N)c([N+](=O)[O-])c2)nnc1-c1ccccc1    2
10. CN1CCN(CC(=O)Nc2ccc(-c3ccc(-c4nc5ccccc5[nH]4)cc3)cc2)CC1    -1
11. CCOc1ccccc1CNc1nccc(NCCc2cn(C)c3ccccc23)n1    -4
12. CN1CCN(c2ccnc3ccc(NC(=O)Nc4ccc(-c5ccncc5)c(C(F)(F)F)c4)cc23)CC1    6
13. O=c1cc(NCCCCNCc2cccc(Cl)c2)[nH]c2ccccc12    -3
14. FC(F)(F)c1ccc(COc2cc(Cl)ccc2Cn2ccnc2)cc1    -5
15. CCOC(=O)c1ccc(N=C2SC(=Cc3cc(Br)ccc3O)C(=O)N2C)cc1    -2
16. O=[N+]([O-])c1ccc(Oc2ccccc2CNCC2CCN(CC3CCCCC3)CC2)cc1    -2
17. O=C(NC1CC1)c1ccc2cc(C(=O)N3Cc4ccccc4C(c4ccccc4)C3)ccc2c1 (stereo not drawn)    1
18. c1ccc(-c2ccc(-c3nc4ccccc4[nH]3)cc2)cc1    -5
19. COc1ccc(-c2ccc(NC(=O)c3cccc(Cl)c3)cc2)cc1CN1CCCC1    4
20. CCNc1cc(C(=O)N[C@@H](Cc2ccc(F)c(F)c2)[C@H](O)CNC2CCCCC2)cc(N2CCCCS2(=O)=O)c1    -2
21. Cc1cnc(Nc2cccnc2)nc1Nc1ccccc1C(=O)NC(C)C    0
22. COc1ccc(C(=O)NCc2ccc(N)nc2C)cc1Nc1ncc(-c2cccc(N(C)C)c2)cn1    -1
23. O=C(Nc1ccc(C(=O)OC[C@@H]2CCCN3CCCC[C@H]23)cc1)c1ccc([N+](=O)[O-])cc1    2
24. CCCc1ccc(-c2csc(NC(=O)c3ccc([N+](=O)[O-])o3)n2)cc1    4
25. Cc1nnsc1C(=O)Nc1ccc(-c2cccc(-c3nc4ccc(F)cc4[nH]3)c2)cc1    2
26. CC(=O)Nc1ccc(C(=O)Nc2cccc(-c3cccc(-c4nc5ccccc5[nH]4)c3)c2)cn1    -2
27. Nc1nc2ccc(CN(C=O)c3ccc(C(=O)N[C@@H](CCC(=O)O)C(=O)O)cc3)cc2c(=O)[nH]1    2
28. Cc1cc(C(=O)CN2C(=O)NC3(CCCc4ccccc43)C2=O)c(C)n1Cc1ccc(F)cc1 (stereo not drawn)    2
29. O=c1[nH]c(NCCCCCN2CCC(c3c[nH]c4ccccc34)CC2)ncc1Cc1ccc(Cl)c(Cl)c1    -4
30. Cc1cccc2[nH]c(-c3cccc(-c4cccc(NC(=O)Nc5ccsc5)c4)c3)nc12    -3
31. O=C1NC(=O)C(c2ccc(Cl)cc2)=C1Nc1cccc(S(=O)(=O)C(F)(F)F)c1    -2
32. Nc1ncnc2c1ncn2C(CO)Cc1ccc(O)cc1 (stereo not drawn)    -2
33. Cc1nc(C)c(CC(=O)Nc2cccc(-c3cccc(-c4nc5ccc(C(F)(F)F)cc5[nH]4)c3)c2)s1    -4
34. N#Cc1cccc(NC(=O)Nc2ccc(-c3ccc(-c4nc5ccc(C(F)(F)F)cc5[nH]4)cc3)cc2)c1    -2
35. COc1cc2nc(N3CCN(C(=O)c4cccc(I)c4)CC3)nc(N)c2cc1OC    2
36. COCCOc1cccc(CN2CCC(c3cc4nc(C)cc(C(F)(F)F)n4n3)C2)c1 (stereo not drawn)    2
37. CNCCNCc1cccc(-c2cccc(-c3nc4ccc(C(F)(F)F)cc4[nH]3)c2)c1    -2
38. CCCCNC(=O)c1[nH]c2c(NC(=O)COc3ccccc3)cccc2c1-c1cccc(NC(=O)C(N)CO)c1 (stereo not drawn)    -3
